Reference source: patent US20200055939A1

Biological target: T1, huMICB*005 alpha 3-his (human)
T1 construct: whole construct entry: GS, alpha 3 domain, GNS, His8; also called MICB005.His; MICB*005 alpha3 construct
T1 chain: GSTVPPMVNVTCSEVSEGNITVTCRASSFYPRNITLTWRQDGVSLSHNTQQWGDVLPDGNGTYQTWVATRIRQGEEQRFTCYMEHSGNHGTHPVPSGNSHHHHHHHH
Test: SPR, Biacore 8K, antibody on Protein A chip
Measured pKd accompanies every entry in the list below.
To interpret pKd, take it as minus log10 of a concentration measured in moles per litre.

Completed entries (count: 4):
[ask] Recorded pKd for 1D5v18 (antibody, IgG1, V domains shown, humanized variant of 1D5) VH: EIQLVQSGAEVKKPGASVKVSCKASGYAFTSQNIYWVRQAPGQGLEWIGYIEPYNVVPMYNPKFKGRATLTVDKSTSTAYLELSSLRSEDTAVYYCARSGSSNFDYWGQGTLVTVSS VL: DIQLTQSPSSLSASVGDRVTITCSASSSISSHYLHWYQQKPGKSPKLLIYRTSNLASGVPSRFSGSGSGTDFTLTISSLQPEDFATYYCQQGSSLPLTFGQGTKVEIK , please?
[reply] 8.85

[ask] Please give the measured pKd for this binder: 13A9v4 (antibody, IgG1, V domains shown, humanized variant of 13A9) VH: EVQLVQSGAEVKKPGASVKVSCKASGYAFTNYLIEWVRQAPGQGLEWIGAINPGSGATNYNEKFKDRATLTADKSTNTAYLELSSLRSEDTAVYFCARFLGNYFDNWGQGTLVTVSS VL: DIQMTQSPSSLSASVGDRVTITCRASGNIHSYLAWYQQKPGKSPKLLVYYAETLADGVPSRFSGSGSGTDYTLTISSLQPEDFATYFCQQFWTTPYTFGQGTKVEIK
[reply] 8.62

[ask] Find the recorded pKd belonging to 1D5v17 (antibody, IgG1, V domains shown, humanized variant of 1D5) VH: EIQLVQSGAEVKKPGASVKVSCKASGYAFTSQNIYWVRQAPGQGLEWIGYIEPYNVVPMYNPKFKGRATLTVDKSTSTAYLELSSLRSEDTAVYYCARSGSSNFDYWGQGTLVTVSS VL: DIQMTQSPSSLSASVGDRVTITCSASSSISSHYLHWYQQKPGKSPKLLIYRTSNLASGVPSRFSGSGSGTDYTLTISSLQPEDFATYYCQQGSSLPLTFGQGTKVEIK and report it.
[reply] 9.00

[ask] Given the entry 1D5v6 (antibody, IgG1, V domains shown, humanized variant of 1D5) VH: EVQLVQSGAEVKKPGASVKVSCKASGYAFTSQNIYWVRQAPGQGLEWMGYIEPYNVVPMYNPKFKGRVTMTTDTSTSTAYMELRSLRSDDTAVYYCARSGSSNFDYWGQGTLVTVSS VL: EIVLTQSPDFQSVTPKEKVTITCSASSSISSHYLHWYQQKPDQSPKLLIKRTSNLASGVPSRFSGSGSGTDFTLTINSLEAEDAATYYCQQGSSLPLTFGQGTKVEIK , report its measured pKd.
[reply] 8.21

Next:
[ask] Requested field: pKd. Item: 13A9v6 (antibody, IgG1, V domains shown, humanized variant of 13A9) VH: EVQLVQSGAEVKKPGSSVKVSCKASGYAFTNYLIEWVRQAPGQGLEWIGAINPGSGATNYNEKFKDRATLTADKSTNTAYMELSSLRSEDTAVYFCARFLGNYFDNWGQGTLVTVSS VL: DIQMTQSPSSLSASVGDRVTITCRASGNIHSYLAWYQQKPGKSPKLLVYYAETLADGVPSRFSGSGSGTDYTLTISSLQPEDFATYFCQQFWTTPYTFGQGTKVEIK
[reply] 8.61
